experimentSummary: soluble on expression in E. coli; label from the status in PepcDB or PDB records
measurementKind: soluble on expression in E. coli

Take a look at these entries with their results.
- sequence: "MNKDLRPIIWNDSEKKLVLIDQRKLPNELVYFECKNYKDVCFAIKDMVVRGAPAIGVAAAYGMALAELNGEDMEKAYLELKKTRPTAVNLFWALEKIIAAKNSGKSLLDEAKLIHEEDIELCRKIGEIGEVLIDDFDTILTHCNAGALATSAYGTALSVIRFAHYNGKKINVLSDETRPRLQGAKLTCFELNYENIPVKAICDNTAGFMMSKGLVDKIIVGADRILSDYHVFNKIGTYSLAILAKYHNIPFYVAAPYSTFDFESKLEDIVIEERSESEVTHIDNVRIVAEGVSAYNFAFDCTPPELITGIITEKEIIYPNKLEHHHHHH"
  measurementKind: "soluble on expression in E. coli"
  reportedValue: "not soluble"
- sequence: "MGSDKIHHHHHHMLANLNQAMDYIEEHLTEEVSFDELAKKTGISVYHFKRTFSFITGMSLAEYIKKRPLAEANLALLAGEKVTDVAFKYGYQSIEGFSRAFRDWSGQAPSEVMKTQIQKTFPKFSFYIDIKGGQSMDVKLIEKPAFQIVGVSQKVPLQYQGENQAIMELAQRITPQQRAEMHTFDDIYPHQVVNASFDFQEGRTTEGGEMTHMIGFATSQENTYEDLEQLSVPAHTWAVFPNEGPFPQTLQETWAKIFSEWLPSSGYQVVAAPEISFTQYQGPAEAKYSEIWLAVTATK"
  measurementKind: "soluble on expression in E. coli"
  reportedValue: "not soluble"
- sequence: "MAISVVDLFSIGIGPSSSHTVGPMRAALTYISEFPSSHVDITLHGSLAATGKGHCTDRAVLLGLVGWEPTIVPIDAAPSPGAPIPAKGSVNGPKGTVSYSLTFDPHPLPEHPNAVTFKGSTTRTYLSVGGGFIMTLEDFRK"
  measurementKind: "soluble on expression in E. coli"
  reportedValue: "not soluble"
- sequence: "MSCTTDKLIQKYDALVRKTTEHKFAKELCAGTLKDRSLYIYLSQDLQFFETSLRLICKTTSLAPTTHALITLAKKIGFFSNDENSYFHDCLELLAPSLTKEERDNFDNKAIPGVDAYINFLDELRKDASITWPSLVTSLWVAEELYWRWARDTPRAPGLHWKYQKWIDLHDGEHFQTWCEFLKAEVDKFPVEEVESIFVKVSQFEFEFFESCYNA"
  measurementKind: "soluble on expression in E. coli"
  reportedValue: "not soluble"
- sequence: "MVRKLKTHEQKLLKKTDFMSWQVDQQGKQGDMLRKFYVKKREHYALYNTLAAKSREVADLIKNLSESDPFRSKCTEDMLTKFYAAGLVPTSDTLERIGKVTGASFARRRLPVVMRNIGMCESVKTASDLVEQGHVRIGTKLVTDPAFMVTRSSEDMITWTKASKIKKHVMDYNNTRDDFDLMD"
  measurementKind: "soluble on expression in E. coli"
  reportedValue: "not soluble"
- sequence: "MGSDKIHHHHHHMHIVDVTMFYAPASGGVRTYLQAKREILSQVPGLRTSLLVPGAERDSLGNHHTLPALRLPLGQGYRFPLRARLWRDALGALAPDIIEAGDPYVTAWAALDASQRLGVPVVGFYHSDLPRLMGDRFGRQVGRRLERYVVNLYRRFDSVLAPCQAMADRLRDWGIDQVRVQPLGVDLQRFHPSCKDPALREELGLAPETRLLVFIGRNSREKNIDILLATMKRLGNGYHLLLIGPGMPRQVPANVTSFDRCCGIYEVARVLASSDAMLHAGTRETFGLIAQEAMASGIPVVGAKAGALKENVPLGAGILCRPLDPEAMADACQSLFRNDVVASGRYARRYVELHFSWESAMKNLLEHYRQLCASSELHVIPQKA"
  measurementKind: "soluble on expression in E. coli"
  reportedValue: "not soluble"
- sequence: "AHHHHHHGSKGILPYVIFRSKKGTFALDAYLALRVEKVERIATLIRKAEVVKRAFDIPPNADLTLEELSEFLESSMEKIRKNAGESFDRRLKKIRRWNLARLFGIPTGHTRHIAEDEHLSREHRESLLALSILENVCRGGIEPIGYGVVDVEVKEGKVYINGKLDPVYTELIKIDMKAALALLEILSE"
  measurementKind: "soluble on expression in E. coli"
  reportedValue: "not soluble"
- sequence: "MGSDKIHHHHHHMTTSYTITCSRPTNYGAVLQTYGLNTALRKMGVDAKVLDYNPKYYYTSTQPLPIRMVRAVVRFPDLTKGRKVFGKFLEDYVPMSAKTYRTLAEIEADVPQADVYICGSDQIWNCKNKLNGKDDAFFLSFAPAKARKVAYAASIAMPEIPNNQKTRYHRLISDFDAVSVREPSSVPMLEDLGIDNVQSVIDPVFLLERNDWDVIADASDFVPTEDYVLVYGYNRQKDVYAYARRLAKKLGVKVYTIGTAIEDYTLDQDRYFWNASPNTFVNLVRNAKAVVTNSFHGTVFSIVYNKPFHFFTVKQTTNSRMLDLLDSLTLKDRHVVGEELLSNDIDYDRPNQLLAEAKKRSLGFLQTNVASYVSENKPMKG"
  measurementKind: "soluble on expression in E. coli"
  reportedValue: "not soluble"
- sequence: "MGSDKIHHHHHHAEISDKVIRIGVLNDQSGVYADIAGTGSVEAARMAAEEFGGEIDGAKIEFVSADHQNKADIAANVANQWIDTGGVDAIVDIPNSSAMLAVQEIGRTKKRIVIASGGGSTDFTGPKCSPYGFHWTYDTYSLAKGTAESLVKDGGTTWYNIVVDYAFGHSLDTDTSRFITQAGGQVVGRVLHPLGTSDFSSYLLQAQGSGAKVIGVLSAGADTVNAIKQAAEFGITQGGQILAGLLIFDQTVHSLGLETAQGLRLTTGFYWDRTDATRAWSAEFLKRSTKNIPSMAHAGVYSGVRHYLAAIKAAGTDNADAVAAKMRETPVNDMFAENGTVRADGRMVHDMYLMEVKKPADSTSEWDLMRLVHVIPGEEAYRPLAEGGCPLVQ"
  measurementKind: "soluble on expression in E. coli"
  reportedValue: "not soluble"
- sequence: "MDFPRIIMARNPIYFESIQIGEKIEGLPRTVTETDIWTFAYLTADFFPLHTDVEFAKKTIFGKPIAQGMLVLSIALGMVDQVILSNYDVSSVIAFFGIKDVRFLRPVFIGDTIAASAEVVEKQDFDEKSGVVTYKLEVKNQRGELVLTALYSALIRKTPSK"
  measurementKind: "soluble on expression in E. coli"
  reportedValue: "soluble"

# evaluate next
Which soluble on expression in E. coli is reported for this sequence? "MNHKVHHHHHHIEGRHMKVLILGAGNIGRAIAWDLKDEFDVYIGDVNNENLEKVKEFATPLKVDASNFDKLVEVMKEFELVIGALPGFLGFKSIKAAIKSKVDMVDVSFMPENPLELRDEAEKAQVTIVFDAGFAPGLSNILMGRIFQELDLKEGYIYVGGLPKDPKPPLYYKITWSPRDLIEEYTRPARVIRNGKVSKVDPLSEVKKVKIGKFEFEAFISDGLRSMLETINSERLEEWTLRWPGHLEKIKVLRELGFFKPENLDFTLRVIEPLMRYETKDFSIMKVVGKGEEGEMEFFLYDEEDSMFSSMSRVTGFTAAIISRIVAENTCTFGVIPPEILGMREDTFRRIIDELKERGISIEGT" soluble

----------
experimentSummary: soluble on expression in E. coli; label from the status in PepcDB or PDB records
measurementKind: soluble on expression in E. coli

- sequence: "MGSDKIHHHHHHMLKICVIGSSGHFRYALEGLDEECSITGIAPGVPEEDLSKLEKAISEMNIKPKKYNNWWEMLEKEKPDILVINTVFSLNGKILLEALERKIHAFVEKPIATTFEDLEKIRSVYQKVRNEVFFTAMFGIRYRPHFLTAKKLVSEGAVGEIRLVNTQKSYKLGQRPDFYKKRETYGGTIPWVGIHAIDWIHWITGKKFLSVYATHSRLHNSGHGELETTALCHFTLENEVFASLSIDYLRPQGAPTHDDDRMRIVGTRGIVEVINERVFLTDEKGHREVPLVEKGQIFEDFLREIRGQGKCMVTPEDSILTTEIALKARLSADTGQIVLI"
  reportedValue: "not soluble"
- sequence: "MKSTDQFQTHEVPWEEFIEALREEMKKQVGADIIDTVVCNLEDGFEVYTYVQGDLDFEYKEALERKYGSDAKTPNVLTIMLLASIYNTSEENIRLHADHKENPIVEVYVKQGNTL"
  reportedValue: "not soluble"
- sequence: "SLIPIFIAKRENGEKIHLLDHHDEELLHHMRKRESFFCIACGKEVLMRLGKQKRWHFAHKKVDSCLAFYEAESTYHMYGKELLYRWFKRQNVHVEIEHYLPEIRQRPDIFIERAGKQIAIEYQCANLSIEQLCKRTYSYWRAGIQVIWIIGGNQLKKHSAYWMKFSSLMAFSLQSYPQPLLIFFCSKQKSFMKCTFITSFSTSVAFSHIIYLPIETTTFEMLFSPVPFQREVLNREWKRRKDYFRQNALPILNYNHKSLLRLLYQCKCNPANFPSEIGVPLPSSFAFQTNSFIWQAFLYMNCIGELAVGDCISLKYVCSYIKKYTKRRMLPYFSQH"
  reportedValue: "not soluble"
- sequence: "MSLVDLVTEAKSSGEGVTSPYSRTEHCENIHEYRCDTRVGVIGIDVSKEHLVTSKGRVRKFTNNEKGYEEILTMKPNIIVIEPTGVYSTRPCQYFKERGVKVLLVSLAMERKGRKGKENRFLRRRKTEGHHHHHH"
  reportedValue: "not soluble"
- sequence: "ASWSHPQFEKIEGRDTWRYAFEEAMTDVQGVYAQKFKEEIEANSDHEIQLFPYGTLGESADIMEQTQDGILQFVDQSPGFTGSLIPEAQVFFVPYLLPTDQDHLARFFKESKAINDMFKPLYADQGLELLNMFPEGEVAMTTKTPVTTCSDLDEVKFRVMTNPLLVESYKAFGATPTPLPWGEVYGGLQTNVIQGQENPTFFLYSTKIYEVTDYITYAGHNNFTTAVMANKDFYDGLSAEDQQLVQNAALAAYDHTVVYQQQAADTELAKIMEAKPEMQVTVLTDEQRSCFKEAAAEVEAKFIEMTGDSGAAILKQMKADLAATAN"
  reportedValue: "soluble"
- sequence: "MSLSEYQDLSQQIELIATAEESEQTHLLGEMVENGLDEGSIALILEAFPVEQRVRLWRSLPLEMHIDVLTEMRAEVRISVINALSEIELKLTLAKLDNLSLIEWEDSLPDDIISEALSLINRDELELYDQANEFADDEIGHWADRKVYTLPFSISVRRAKVLLDKYHYDSPQYIYLINKAKKFRGLVSFSDVLQAEETTQLKNLRMEELVTLNAKQTLSDAVDALEHTTLPIVPVLSDDETLIGEIDWHFALSVQREMYEARLMAGTGMDEGDDLFAPVIKSEGHHHHHH"
  reportedValue: "soluble"
- sequence: "MTETYVLAESPEFYQDNVTDYTGQISSSDITNIQAAIDDVKASEQKVIFVVFLSSFDGVDPETWTQQALQANGGGNVLIYALAPEERQYGIQGGTQWTDAELDAANNAAFQALSQEDWAGSALALAESVGSSSSSSSGSSSLEHHHHHH"
  reportedValue: "soluble"
- sequence: "MISSMTGFGRSKVESDTFQITVEMKSVNHRFLEMSIRLPKQMMVFEDKIRKIIAQQVRRGRIEVSISIAGEGLVERKLSVNWSLLEQYQSMMEDIKGKFQLQDSITLEQLMAMPEVTAIEEIENVNEHFENSLYEAVRQAAHMLKTMRDGEGERLHKDIAYRLQEISNCVNAIIPHAPIVTQKYRERLENRLKELHNQDLDEQRLLTEVAIFAERCDIHEELVRLQSHLEQFRETLQIEEPVGRKMDFIVQEMHREINTIGSKANDLTISKYVVEMKNNLEKIREQVQNIE"
  reportedValue: "not soluble"

Which soluble on expression in E. coli is reported for this sequence? "MRIGHGFDVHKFGENGSGPLIIGGVRIPYEKGLLAHSDGDVALHAATDALLGAAALGDIGKLFPDTDPAFKGADSRGLLREAYRRILAKGYKLGNLDITIIAQAPKMAPHIPQMRVNLAEDLQCHMDDINVKATTTEQLGFTGRGEGIACEAVVLLVNVEQG" not soluble
